B1: Azoarcus group I ribozyme (parent)
chain: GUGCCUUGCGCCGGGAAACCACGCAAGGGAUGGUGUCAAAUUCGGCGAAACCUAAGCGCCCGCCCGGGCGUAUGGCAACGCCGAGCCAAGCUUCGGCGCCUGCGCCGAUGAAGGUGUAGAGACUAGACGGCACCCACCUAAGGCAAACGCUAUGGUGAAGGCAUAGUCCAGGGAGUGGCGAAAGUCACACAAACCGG

- Variants of: B1
- testProtocol: reverse-splicing fitness (ratio to wild type); higher = more active; in vitro selection; Mg2+ level not given
readoutLabel: reverse-splicing fitness

> print(dat)
                             variantnotation  reportedmeasurement
 1              C82G A111G A145G C150G U176G              0.00812
 2              C82A A111C A120U C150A U176G              0.00369
 3                    C82A A111G A120C U176C                0.032
 4        C82G A111C A120U C150U C169G U176G              0.00259
 5        C82G A111G A145C C150A C169G U176G              0.00577
 6                    C82G A120U C150A U176A               0.0102
 7        C82G A111U A120U C150G C169U U176C              0.00541
 8                    C82U A120U C150A U176G              0.00418
 9                    C82A A111U A120G C169U              0.00987
10              C82U A145U C150G C169A U176C              0.00964
11  C82U A111U A120U A145G C150U C169A U176A              0.00543
12  C82U A111G A120U A145G C150G C169G U176G              0.00255
13        C82G A111U A120G A145C C150U U176A              0.00941
14                         A145U C150U U176C                0.816
15             A111G A120G C150U C169A U176C               0.0419
16                         A145G C169U U176A                0.123
17              C82A A120C A145C C150U C169A              0.00982
18        C82G A111G A120U A145C C150U C169A              0.00231
19  C82A A111G A120G A145C C150U C169A U176A               0.0114
20                   A145C C150G C169G U176G              0.00537
21                          C82U C169G U176C               0.0184
22              C82U A111G A145U C150U U176A                0.123
23              C82G A120U C150U C169G U176G              0.00205
24             A111C A120U A145U C150G U176A               0.0214
25                    C82U A111G C169A U176G              0.00438
26              C82A A111U C150U C169A U176G              0.00786
27                    C82U A120C C150U U176G              0.00855
28                    C82G A111C A120C C150U               0.0277
29        C82U A111G A145G C150G C169U U176C                0.012
30              C82U A111C A145G C150A C169U               0.0103
31  C82G A111U A120C A145C C150A C169G U176C               0.0279
32                   A111C A145C C150U U176A                0.219
33        C82G A111G A120U A145G C150U U176A               0.0125
34                   A145C C150U C169A U176C               0.0196
35              C82U A111C A120C A145C C169A              0.00667
36                          C82U C169U U176G              0.00445
37  C82G A111G A120G A145G C150A C169G U176A               0.0177
38                   A111U A145G C150G C169A               0.0104
39        C82A A111C A145U C150U C169U U176G              0.00857
40                   A111U A120C C169U U176C               0.0473
41                   A145C C150A C169A U176A               0.0107
42                    C82U A111U A120U C169G              0.00397
43                   A145G C150U C169G U176C                 0.11
44              C82A A111U A120C C150G C169U               0.0101
45        C82A A111C A120G C150U C169G U176C               0.0169
46             A111G A120U C150A C169A U176C              0.00292
47  C82A A111C A120C A145U C150A C169A U176G              0.00859
48              C82U A111C A120G A145G C150U               0.0115
49                    C82U A111U A120U C150A              0.00701
50        C82U A111G A120G A145C C150G C169A              0.00854
51                   A111C A120C A145G C169G               0.0102
52              C82G A111C A120U C150G U176A              0.00422
53  C82A A111C A120U A145C C150A C169G U176G              0.00211
54  C82G A111U A120G A145C C150A C169U U176C               0.0103
55                    C82A A111G A145G C169A               0.0102
56             A120C A145U C150G C169U U176A               0.0184
57                         A120C A145U U176C                  0.7
58        C82G A120U A145U C150U C169G U176C              0.00331
59       A111U A120U A145U C150G C169A U176A              0.00319
60                         A111U C150A C169G               0.0124
61              C82G A111G A120G C150U U176C               0.0211
62              C82U A120U C150A C169G U176C              0.00268
63        C82U A111C A120U A145C C150U U176A              0.00424
64       A111G A120C A145G C150G C169A U176G              0.00623
65             A111U A120U C150U C169A U176A              0.00464
66       A111G A120G A145U C150G C169A U176C               0.0123
67  C82U A111U A120G A145G C150A C169U U176C               0.0157
68                    C82A A145C C169A U176A               0.0087
69              C82U A111U A120G A145U C150A              0.00808
70              C82G A111C A120G A145U U176A                0.016
71  C82A A111C A120G A145U C150U C169A U176C              0.00986
72                   A111C C150U C169A U176G              0.00796
73        C82A A111C A145C C150G C169A U176G              0.00742
74        C82G A120U A145U C150A C169U U176C               0.0022
75             A111C A145C C150U C169G U176G              0.00689
76             A111G A120U A145G C150G U176G              0.00403
77  C82A A111U A120G A145G C150A C169U U176G               0.0069
78                    C82U A120C C169U U176A               0.0188
79  C82A A111C A120U A145U C150A C169U U176G              0.00282
80  C82U A111U A120G A145U C150A C169A U176G              0.00508
81        C82G A120U A145U C150G C169U U176C              0.00223
82                   A111U A120C C169G U176C               0.0168
83  C82A A111G A120C A145G C150G C169G U176A               0.0127
84                    C82U A120C C150A C169U               0.0109
85                    C82G A111G C169G U176C               0.0239
86        C82A A111U A120C A145C C150U C169G              0.00912
87  C82G A111U A120U A145G C150A C169A U176A              0.00821
88             A111U A120C C150A C169U U176A               0.0243
89        C82U A111C A120G A145G C150U C169U              0.00958
90        C82A A111C A120C A145G C150U U176C               0.0208
91              C82G A111G C150G C169U U176A              0.00973

The reported measurements were obtained from the RNAGym collection of RNA variant scans (doi:10.1093/molbev/msab373).
